Target: human ether-à-go-go-related gene (hERG) potassium channel (human);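 further: peak tail current of the secondary pulse compared with the same well before compound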
Sequence (Q12809 whole entry, looked up): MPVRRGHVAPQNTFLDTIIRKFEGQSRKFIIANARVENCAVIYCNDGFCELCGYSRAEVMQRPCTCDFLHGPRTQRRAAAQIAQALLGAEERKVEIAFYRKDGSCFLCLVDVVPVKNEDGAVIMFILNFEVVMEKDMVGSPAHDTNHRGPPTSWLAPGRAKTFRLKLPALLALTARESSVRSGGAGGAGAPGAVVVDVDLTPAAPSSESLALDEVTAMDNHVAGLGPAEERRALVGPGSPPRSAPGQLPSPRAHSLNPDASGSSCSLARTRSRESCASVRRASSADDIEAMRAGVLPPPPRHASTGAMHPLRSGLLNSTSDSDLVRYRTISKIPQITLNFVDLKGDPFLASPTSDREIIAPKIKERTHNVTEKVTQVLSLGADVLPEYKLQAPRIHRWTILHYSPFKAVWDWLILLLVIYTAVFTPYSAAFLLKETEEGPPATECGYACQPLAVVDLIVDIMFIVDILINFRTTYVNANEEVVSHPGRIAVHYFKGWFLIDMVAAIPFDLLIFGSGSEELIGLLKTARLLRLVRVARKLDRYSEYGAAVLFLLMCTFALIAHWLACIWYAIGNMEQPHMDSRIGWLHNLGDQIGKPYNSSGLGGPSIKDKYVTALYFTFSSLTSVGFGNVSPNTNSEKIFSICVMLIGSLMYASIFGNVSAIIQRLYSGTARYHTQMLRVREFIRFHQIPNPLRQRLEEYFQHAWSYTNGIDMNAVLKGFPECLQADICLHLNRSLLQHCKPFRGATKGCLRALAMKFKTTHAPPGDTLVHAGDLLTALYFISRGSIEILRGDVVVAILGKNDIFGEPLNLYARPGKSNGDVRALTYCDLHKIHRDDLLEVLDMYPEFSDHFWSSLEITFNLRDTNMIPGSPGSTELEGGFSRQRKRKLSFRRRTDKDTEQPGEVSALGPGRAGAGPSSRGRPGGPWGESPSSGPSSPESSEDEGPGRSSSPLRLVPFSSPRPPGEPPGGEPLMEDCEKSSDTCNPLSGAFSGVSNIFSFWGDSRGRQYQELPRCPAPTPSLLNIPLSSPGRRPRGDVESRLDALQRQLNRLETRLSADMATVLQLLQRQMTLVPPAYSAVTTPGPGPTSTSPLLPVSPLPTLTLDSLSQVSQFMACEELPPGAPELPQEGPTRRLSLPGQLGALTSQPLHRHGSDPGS
Experiment: primary screen, population patch clamp on CHO cells stably expressing hERG; higher = less effect of the substance
Hit rate of the full screen: of about 310,000 compounds, about 14,000 (4.5%) showed an effect of 50% or more. Effects have a minus sign here. The list comes from a sample in which strong results are over-represented; it also holds close analogues and randomly drawn compounds.
hERG current change (%, negative = inhibition) at 10uM by entry:
quantity: hERG current change (%, negative = inhibition) at 10uM (%)

[
  {
    "compound": "COC(=O)c1[nH]c2ccccc2c1NC(=O)Oc1ccccc1",
    "targetOfAssay": "human ether-à-go-go-related gene (hERG) potassium channel (human)",
    "valueObserved": 12
  },
  {
    "compound": "CC(C)(C)c1ccc(/C=C/C(=O)NCCCn2ccnc2)cc1",
    "targetOfAssay": "human ether-à-go-go-related gene (hERG) potassium channel (human)",
    "valueObserved": -46.5
  },
  {
    "compound": "CCN1CCN(CCNC(=O)c2ccc3c(c2)N(Cc2ccc(F)cc2)C(=O)/C(=C/c2ccccc2)S3)CC1",
    "targetOfAssay": "human ether-à-go-go-related gene (hERG) potassium channel (human)",
    "valueObserved": -42.7
  },
  {
    "compound": "O=C(NCCOc1ccc2ccccc2c1)c1cncc(Br)c1",
    "targetOfAssay": "human ether-à-go-go-related gene (hERG) potassium channel (human)",
    "valueObserved": 3.79
  },
  {
    "compound": "Cc1nc(-c2ccc(F)cc2)c(CC(=O)Nc2cccc(S(=O)(=O)N3CCOCC3)c2)s1",
    "targetOfAssay": "human ether-à-go-go-related gene (hERG) potassium channel (human)",
    "valueObserved": -15.8
  },
  {
    "compound": "COc1ccc(S(=O)(=O)N(C)c2ccc(C(=O)NCc3ccncc3)cc2)cc1",
    "targetOfAssay": "human ether-à-go-go-related gene (hERG) potassium channel (human)",
    "valueObserved": -18.8
  },
  {
    "compound": "COc1ccc(C(=O)C2CCCN(Cc3ccc4nonc4c3)C2)c(OC)c1 (stereo not shown)",
    "targetOfAssay": "human ether-à-go-go-related gene (hERG) potassium channel (human)",
    "valueObserved": -66.7
  },
  {
    "compound": "CCOc1ccc(S(=O)(=O)N(CC(=O)NCc2cccnc2)c2ccc(F)cc2)cc1",
    "targetOfAssay": "human ether-à-go-go-related gene (hERG) potassium channel (human)",
    "valueObserved": -72.5
  },
  {
    "compound": "CS(=O)Cc1cc(Oc2ccccc2)nc(-c2ccncc2)n1 (stereo not shown)",
    "targetOfAssay": "human ether-à-go-go-related gene (hERG) potassium channel (human)",
    "valueObserved": -16.5
  },
  {
    "compound": "O=C(Nc1ccc(S(=O)(=O)NCC2CCCO2)cc1)C1CC(=O)N(c2ccccc2)C1 (stereo not shown)",
    "targetOfAssay": "human ether-à-go-go-related gene (hERG) potassium channel (human)",
    "valueObserved": 3.16
  },
  {
    "compound": "Clc1ccc(SCCCCn2ccnc2)cc1",
    "targetOfAssay": "human ether-à-go-go-related gene (hERG) potassium channel (human)",
    "valueObserved": -53
  },
  {
    "compound": "COc1cc(OC)c(/C=N/NC(=O)c2ccc(Cn3nc([N+](=O)[O-])cc3C)cc2)c(OC)c1",
    "targetOfAssay": "human ether-à-go-go-related gene (hERG) potassium channel (human)",
    "valueObserved": -37.1
  },
  {
    "compound": "COc1ccccc1/C=N/Nc1nccnc1Cl",
    "targetOfAssay": "human ether-à-go-go-related gene (hERG) potassium channel (human)",
    "valueObserved": -11.5
  },
  {
    "compound": "CCOC(=O)N1CCN(C(=O)c2cc(S(=O)(=O)N3CCc4ccccc43)ccc2OC)CC1",
    "targetOfAssay": "human ether-à-go-go-related gene (hERG) potassium channel (human)",
    "valueObserved": -52.1
  },
  {
    "compound": "COc1cc(C(=O)Nc2ccc(S(=O)(=O)N3CCc4ccccc43)cc2)cc(OC)c1OC",
    "targetOfAssay": "human ether-à-go-go-related gene (hERG) potassium channel (human)",
    "valueObserved": -4.14
  },
  {
    "compound": "COc1ccc(C(=O)C2CCCN(Cc3ccc4nonc4c3)C2)c(C)c1 (stereo not shown)",
    "targetOfAssay": "human ether-à-go-go-related gene (hERG) potassium channel (human)",
    "valueObserved": -20.3
  },
  {
    "compound": "Cc1cc(C)nc(NS(=O)(=O)c2ccc(NC(=O)c3ccc4c(c3)OCO4)cc2)n1",
    "targetOfAssay": "human ether-à-go-go-related gene (hERG) potassium channel (human)",
    "valueObserved": -0.197
  },
  {
    "compound": "CCOCCCNC(=S)N1C2CCC1CC(NC(=O)NC13CC4CC(CC(C4)C1)C3)C2 (stereo not shown)",
    "targetOfAssay": "human ether-à-go-go-related gene (hERG) potassium channel (human)",
    "valueObserved": -8.16
  },
  {
    "compound": "O=C(c1ccco1)N1N=C(c2cccs2)CC1c1cc([N+](=O)[O-])ccc1O (stereo not shown)",
    "targetOfAssay": "human ether-à-go-go-related gene (hERG) potassium channel (human)",
    "valueObserved": 7.51
  },
  {
    "compound": "COc1ccc(/C=C/C(=O)NCCCn2ccnc2)cc1",
    "targetOfAssay": "human ether-à-go-go-related gene (hERG) potassium channel (human)",
    "valueObserved": -30.9
  },
  {
    "compound": "O=C(/C=C/c1ccc(Cl)cc1)NCCCn1ccnc1",
    "targetOfAssay": "human ether-à-go-go-related gene (hERG) potassium channel (human)",
    "valueObserved": -55.8
  },
  {
    "compound": "O=C(NNc1ccccn1)C(=O)NNS(=O)(=O)c1ccc(F)cc1",
    "targetOfAssay": "human ether-à-go-go-related gene (hERG) potassium channel (human)",
    "valueObserved": 12.5
  },
  {
    "compound": "CCOC(=O)C1CCN(S(=O)(=O)c2ccc(NC(=O)OC)cc2)CC1",
    "targetOfAssay": "human ether-à-go-go-related gene (hERG) potassium channel (human)",
    "valueObserved": -56.5
  },
  {
    "compound": "CCOC(=O)C1CCN(C(=O)c2cccc(S(=O)(=O)N3c4ccccc4CC3C)c2)CC1 (stereo not shown)",
    "targetOfAssay": "human ether-à-go-go-related gene (hERG) potassium channel (human)",
    "valueObserved": -35.7
  },
  {
    "compound": "CCCn1nnnc1NCc1ccc(N(C)C)cc1",
    "targetOfAssay": "human ether-à-go-go-related gene (hERG) potassium channel (human)",
    "valueObserved": 1.95
  },
  {
    "compound": "Fc1ccc2[nH]c3c(NCc4ccccc4)ncnc3c2c1",
    "targetOfAssay": "human ether-à-go-go-related gene (hERG) potassium channel (human)",
    "valueObserved": 10.5
  },
  {
    "compound": "Cn1c(CC(=O)Nc2ccccc2)nnc1SCCOc1ccccc1",
    "targetOfAssay": "human ether-à-go-go-related gene (hERG) potassium channel (human)",
    "valueObserved": 2.08
  },
  {
    "compound": "O=C(NCCCn1ccnc1)c1ccc(Cl)cc1",
    "targetOfAssay": "human ether-à-go-go-related gene (hERG) potassium channel (human)",
    "valueObserved": -2.72
  },
  {
    "compound": "CCC1Oc2ccc(C)cc2N(CC(=O)NCc2cccc(OC)c2)C1=O (stereo not shown)",
    "targetOfAssay": "human ether-à-go-go-related gene (hERG) potassium channel (human)",
    "valueObserved": -8.94
  },
  {
    "compound": "Cc1cc(C)n(C(C)CC(=O)Nc2ccc(-c3ccno3)cc2)n1 (stereo not shown)",
    "targetOfAssay": "human ether-à-go-go-related gene (hERG) potassium channel (human)",
    "valueObserved": 1.47
  },
  {
    "compound": "CCOc1ccc(S(=O)(=O)N(CC(=O)NCc2ccncc2)c2ccc(C)cc2)cc1",
    "targetOfAssay": "human ether-à-go-go-related gene (hERG) potassium channel (human)",
    "valueObserved": -56.5
  },
  {
    "compound": "COc1ccc(S(=O)(=O)N2CCc3ccccc32)cc1C(=O)N1CCN(C=O)CC1",
    "targetOfAssay": "human ether-à-go-go-related gene (hERG) potassium channel (human)",
    "valueObserved": -2.51
  },
  {
    "compound": "Clc1ccc(SCCn2ccnc2)cc1",
    "targetOfAssay": "human ether-à-go-go-related gene (hERG) potassium channel (human)",
    "valueObserved": -1.48
  },
  {
    "compound": "COc1ccc(C(=O)C2CCCN(Cc3ccc4nonc4c3)C2)cc1F (stereo not shown)",
    "targetOfAssay": "human ether-à-go-go-related gene (hERG) potassium channel (human)",
    "valueObserved": -41.1
  },
  {
    "compound": "CCOc1ccc(N(CC(=O)NCc2ccccc2)S(=O)(=O)c2ccc(C)cc2)cc1",
    "targetOfAssay": "human ether-à-go-go-related gene (hERG) potassium channel (human)",
    "valueObserved": 4.04
  },
  {
    "compound": "COc1ccc(S(=O)(=O)N2CC(C)OC(C)C2)cc1C(=O)N1CCCCC1 (stereo not shown)",
    "targetOfAssay": "human ether-à-go-go-related gene (hERG) potassium channel (human)",
    "valueObserved": 6.93
  },
  {
    "compound": "CCOc1ccc(S(=O)(=O)N(CC)CC(=O)NCc2ccncc2)cc1",
    "targetOfAssay": "human ether-à-go-go-related gene (hERG) potassium channel (human)",
    "valueObserved": -13.2
  },
  {
    "compound": "O=C(/C=C/c1ccc(Cl)c(Cl)c1)NCCCn1ccnc1",
    "targetOfAssay": "human ether-à-go-go-related gene (hERG) potassium channel (human)",
    "valueObserved": -41.7
  },
  {
    "compound": "CCCCOC(=O)c1ccc(NC(=O)CSCc2n[nH]c(=O)[nH]2)cc1",
    "targetOfAssay": "human ether-à-go-go-related gene (hERG) potassium channel (human)",
    "valueObserved": 1.91
  },
  {
    "compound": "COc1ccc(N2CC(C)Cn3c2nc2c3c(=O)[nH]c(=O)n2C)cc1 (stereo not shown)",
    "targetOfAssay": "human ether-à-go-go-related gene (hERG) potassium channel (human)",
    "valueObserved": -24.3
  }
]
